Reference for the values: patent US20250064993A1

# measurement_description: Kinetic inertness: half-life by transmetallation of the Mn2+ complex with excess Zn2+, followed by water proton relaxation rates
# Assay type: physicochemical
# condition_parameters: 25 eq Zn^2+, pH = 6, 37° C.; read-out: Half-life in excess of Zn^2+ (t1/2) (converted)
observed_property: half-life at 1 mM (days)
Just the number please, in days, no unit attached.

Task: What half-life at 1 mM value was documented for this compound, CN1[C@@H](c2ccccn2)C2(C(=O)O)CN([C@@H](CCCCNC(=O)CCOCCOCCO)C(=O)O)CC(C(=O)O)([C@H]2O)[C@H]1c1ccccn1 ?
Output: 160
